- Test system: S. Typhi PhoP-promoter GFP reporter, fluorescence, 4 h
- assay-explanation: PhoP regulon inhibitor project modified counter assay, GFP fluorescence readout, dose response (AID 1985)
Form field: pIC50 (one value per entry).
When answering, recall that pIC50 equals minus log10 of the concentration in mol/L, and write that number alone.

>>> print(df.to_string())
                                compound  readout_name  measurement
0  Cc1cccc(Nc2nc(NCc3ccco3)c3ccccc3n2)c1         pIC50         4.96

Problem: Recall and state the measured pIC50 for `CCn1cc(C(=O)NCCO)c(=O)c2cc(F)c(N3CCN(C)CC3)cc21` .
Result: 4.79

====

- System: S. Typhi PhoP-promoter GFP reporter, fluorescence, 4 h
- assay-explanation: PhoP regulon inhibitor project modified counter assay, GFP fluorescence readout, dose response (AID 1985)
readout-name: IC50

>>> print(df.to_string())
                                   compound  readout_name  measurement
0  OC1CCCN(Cc2ccc3ccc4cccc5ccc2c3c45)C1 (stereo unspecified)          IC50       118 µM
1    COc1cc2c(cc1OC)[C@H](Cc1ccc(O)cc1)NCC2          IC50        87 µM
2     O=C(Cc1ccccc1)N/N=C/c1cc(Br)cc(Cl)c1O          IC50      44.9 µM
3     Cc1ccc2oc(=O)c(/C=C(\O)c3ccccc3)nc2c1          IC50      46.7 µM
4  OCCN1CCN(C2Cc3cc(Cl)ccc3Sc3ccc(Cl)cc32)CC1 (stereo unspecified) (tested in a mixture with another compound)          IC50      74.8 µM
5    O=[N+]([O-])c1ccc(/C=[N+](\[O-])CCO)o1          IC50      33.6 µM

Problem: Specify IC50 for `O=C(Nc1ccccc1)Nc1nccs1` , system S. Typhi PhoP-promoter GFP reporter, fluorescence, 4 h.
Result: 128 µM

Problem: Specify IC50 for `O=C(N/N=C/c1cccs1)c1ccc2nc[nH]c2c1` , system S. Typhi PhoP-promoter GFP reporter, fluorescence, 4 h.
Result: 136 µM

Problem: Specify IC50 for `O=C(N/N=C/c1ccccc1O)c1ccncc1` , system S. Typhi PhoP-promoter GFP reporter, fluorescence, 4 h.
Result: 24.7 µM

Problem: Specify IC50 for `CCN(CCC(=O)Nc1ccc(Br)c(C)c1)Cc1ccccc1` , system S. Typhi PhoP-promoter GFP reporter, fluorescence, 4 h.
Result: 79.8 µM

Problem: Specify IC50 for `O=c1cc(-c2ccccc2)nc2nc(-c3ccco3)[nH]n12` , system S. Typhi PhoP-promoter GFP reporter, fluorescence, 4 h.
Result: 139 µM

====

- Tested on: S. Typhi PhoP-promoter GFP reporter, fluorescence, 4 h
- assay-explanation: PhoP regulon inhibitor project modified counter assay, GFP fluorescence readout, dose response (AID 1985)
readout-name: IC50

Consider the reported IC50 for these molecules:
molecule	measured-on	measurement
COc1ccc(/C=N/Nc2cc(C)nc3ccc(Br)cc23)cc1	S. Typhi PhoP-promoter GFP reporter, fluorescence, 4 h	46.2 µM
O=C(/C=C/c1cc(Br)ccc1O)c1ccco1	S. Typhi PhoP-promoter GFP reporter, fluorescence, 4 h	68.1 µM
O=C(O)c1ccc(N2C(=O)CSC2=S)cc1	S. Typhi PhoP-promoter GFP reporter, fluorescence, 4 h	144 µM

Problem: Recall and state the measured IC50 for COC(=O)C1C(O)C(C)C(O)C(C)(O)/C=C\C=C(/C)C(=O)Nc2c(C)c(OC(C)=O)c3c(c2O)C(=O)C(C)=C2OCOC(=C23)/C(C)=C/C(C)(O)C(O)C(C)C1O (stereo not drawn) .
Result: 33.1 µM

Problem: Recall and state the measured IC50 for `O=S1(=O)Nc2c(ccc3cccnc23)-c2ccccc21` .
Result: 1.17 µM

Problem: Recall and state the measured IC50 for `O=c1c2ccccc2[nH]c2ccc(F)cc12` .
Result: 71.2 µM

Problem: Recall and state the measured IC50 for `CCn1cc(C(=O)O)c(=O)c2cc(F)c(N3CCN(C(=S)NC(=O)c4ccccc4C)CC3)cc21` .
Result: 28.2 µM

Problem: Recall and state the measured IC50 for `Cc1cccc2sc(N(CCCN(C)C)C(=O)COc3ccc(Cl)cc3)nc12` .
Result: 79 µM

Problem: Recall and state the measured IC50 for `CCCCn1c(=N)n(CC(=O)c2ccc(Br)s2)c2ccccc21` .
Result: 78.7 µM

Problem: Recall and state the measured IC50 for `Nc1nc(Nc2cccc(F)c2)nc2ccccc12` .
Result: 54 µM

Problem: Recall and state the measured IC50 for `CN(CC(=O)Nc1ccc(F)c(F)c1F)c1cnccn1` .
Result: 108 µM

Problem: Recall and state the measured IC50 for CC1CCC(C(C)C)C(OC(=O)Cn2c(COc3ccccc3)[n+](C)c3ccccc32)C1 (stereo not drawn) .
Result: 51.5 µM

Problem: Recall and state the measured IC50 for COc1ccccc1C(C[N+](=O)[O-])c1c(N)n(C)c(=O)n(C)c1=O (stereo not drawn) .
Result: 79.1 µM

Problem: Recall and state the measured IC50 for `[O-][n+]1c2ccccc2cc2ccccc21` .
Result: 88 µM

Problem: Recall and state the measured IC50 for CCc1cccc2c1Sc1ccccc1CC2N1CCNCC1 (stereo not drawn) .
Result: 44.4 µM

Problem: Recall and state the measured IC50 for `C#CCOCCOCCOCCNc1nc(N2CCN(C(=O)[C@H](Cc3ccc(O)cc3)n3cc([C@@H](N)CC(C)C)nn3)CC2)nc(N2CCN(C(=O)[C@H](Cc3ccc(O)cc3)n3cc([C@@H](N)CC(C)C)nn3)CC2)n1` .
Result: 112 µM
